Data origin, for the record: patent US11744839B2

Molecular target: BLVRB (Homo sapiens, UniProt P30043)
Sequence (P30043 1-206): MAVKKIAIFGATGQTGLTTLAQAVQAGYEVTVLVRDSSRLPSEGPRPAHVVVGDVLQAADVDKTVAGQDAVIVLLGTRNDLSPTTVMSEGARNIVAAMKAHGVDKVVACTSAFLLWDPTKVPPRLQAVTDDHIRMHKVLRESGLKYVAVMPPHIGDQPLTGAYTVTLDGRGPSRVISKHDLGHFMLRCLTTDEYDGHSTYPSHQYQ
Experiment: Isothermal titration calorimetry (ITC) of compound binding to BLVRB
Settings: 25 °C
Recorded ΔH (enthalpy of the reaction), one value per entry.

# molecule, ΔH (enthalpy of the reaction), kcal/mol
data = [
    ("O=C(O)c1ccccc1-c1c2cc(I)c(=O)c(I)c-2oc2c(I)c(O)c(I)cc12 [Erythrosin B, reference compound]", -6.38),
    ("Cc1c(Nc2ncccc2C(=O)O)cccc1C(F)(F)F", -8.54),
    ("O=C([O-])c1c(Cl)c(Cl)c(Cl)c(Cl)c1-c1c2cc(Br)c(=O)c(Br)c-2oc2c(Br)c([O-])c(Br)cc12.[Na+].[Na+] [Phloxine B, reference compound]", -3.88),
    ("O=C(O)c1cccc(-c2noc(-c3ccccc3F)n2)c1", -10.96),
    ("O=C(O)c1cc2ccccc2c(Cc2c(O)c(C(=O)O)cc3ccccc23)c1O", -6.76),
    ("O=C(O)c1cc(/N=N/c2ccc(S(=O)(=O)Nc3ccccn3)cc2)ccc1O", -9.43),
    ("CC1(C)CCC(C)(C)c2cc(NC(=O)c3ccc(C(=O)O)cc3)ccc21", -4.49),
    ("O=C(O)c1ccc(-n2nc(-c3ccccc3O)nc2-c2ccccc2O)cc1", -7.32),
    ("Cc1nc(-c2ccc(OCC(C)C)c(C#N)c2)sc1C(=O)O", -5.75),
]

----------
Form field: ΔG (one value per entry).
Molecular target: BLVRB (Homo sapiens, UniProt P30043)
Sequence (P30043 1-206): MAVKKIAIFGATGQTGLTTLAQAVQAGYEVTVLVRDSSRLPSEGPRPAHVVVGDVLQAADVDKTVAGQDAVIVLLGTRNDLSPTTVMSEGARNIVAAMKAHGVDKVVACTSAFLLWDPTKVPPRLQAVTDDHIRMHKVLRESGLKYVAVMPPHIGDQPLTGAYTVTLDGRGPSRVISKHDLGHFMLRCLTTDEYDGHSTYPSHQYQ
Assay: Isothermal titration calorimetry (ITC) of compound binding to BLVRB
Settings: 25 °C

# molecule, ΔG (kcal/mol)
measured = [
    ("O=C(O)c1cc2ccccc2c(Cc2c(O)c(C(=O)O)cc3ccccc23)c1O", -7.84),
    ("O=C([O-])c1c(Cl)c(Cl)c(Cl)c(Cl)c1-c1c2cc(Br)c(=O)c(Br)c-2oc2c(Br)c([O-])c(Br)cc12.[Na+].[Na+] [Phloxine B, reference compound]", -8.00),
    ("O=C(O)c1ccccc1-c1c2cc(I)c(=O)c(I)c-2oc2c(I)c(O)c(I)cc12 [Erythrosin B, reference compound]", -9.28),
    ("O=C(O)c1cccc(-c2noc(-c3ccccc3F)n2)c1", -9.13),
    ("Cc1c(Nc2ncccc2C(=O)O)cccc1C(F)(F)F", -8.95),
    ("O=C(O)c1cc(/N=N/c2ccc(S(=O)(=O)Nc3ccccn3)cc2)ccc1O", -8.67),
    ("CC1(C)CCC(C)(C)c2cc(NC(=O)c3ccc(C(=O)O)cc3)ccc21", -7.99),
    ("Cc1nc(-c2ccc(OCC(C)C)c(C#N)c2)sc1C(=O)O", -7.90),
    ("O=C(O)c1ccc(-n2nc(-c3ccccc3O)nc2-c2ccccc2O)cc1", -7.87),
]
